OBSERVABLE: melting point

- Cn1ncc2c1c1ccccc1n2C(=O)c1ccc(Cl)cc1: 145 to 147 °C
- Cn1ncc2c1c1ccccc1n2C(=O)c1ccccc1: 152.6 to 153.2 °C
- Cn1ncc2c1c1ccccc1n2C(=O)c1ccc(Cl)c(Cl)c1: 142 to 143 °C
- COc1ccc(C(=O)n2c3ccccc3c3c2cnn3C)cc1: 136 to 138 °C
- Cc1ccc(C(=O)n2c3ccccc3c3c2cnn3C)cc1: 167 to 169 °C
- Cn1ncc2c1c1ccccc1n2C(=O)C1CCCCC1: 140.3 to 141.2 °C
- Cn1ncc2c1c1ccccc1n2C(=O)c1cccc(F)c1: 91.1 to 92.8 °C
